Origin of the recorded values: PubChem BioAssay

# MEASUREMENT_NOTES: JC-1 mitochondrial signal, unstimulated adipocytes – cell-based, JC-1 fluorescence, 3T3-L1 adipocytes, 24 h, 100 nL compound, profiling panel (AID 1168); note: test concentration not given here
# PARTICULARS: JC-1 mitochondrial fluorescence, higher = more signal, called active from +8 up or from −8 down
MEASURED_ENDPOINT: z-score
Give bare numbers.

Please review the entries below; each comes with its answer.
{"columns": ["MOLECULE", "MEASURED_ENDPOINT", "RECORDED_RESULT"],
 "data": [
  ["Cc1ccc(F)cc1S(=O)(=O)N[C@H]1CCN(Cc2ccc(OC(C)C)cc2)C1", "z-score", 0.416],
  ["C[N+](C)(C)CCCCNC(=O)[C@H]1C[C@H]2C(=O)N[C@@H](Cc3ccccc3)C(=O)N2[C@H]1c1cccc(OCCO)c1", "z-score", -0.318],
  ["CC(C)(C)OC(=O)CC[C@]1(C(=O)NCC(O)CO)N=C(c2ccc(OCCCO)cc2)O[C@H]1c1ccccc1N=[N+]=[N-] (some centres undefined)", "z-score", 2.2],
  ["C=CCC(OC(C)=O)[C@@H]1[C@@H](N(Cc2ccc(-c3cccc(C(F)(F)F)c3)o2)C(=O)c2ccc(-c3ccccc3)cc2)c2cc(OCCCO)ccc2N1C(=O)c1ccc2ccccc2c1 (some centres undefined)", "z-score", -0.081]
]}

Dear colleague, could you send me z-score for each of the items below? Thanks.
1. NCCCCCCNC(=O)[C@@H]1C[C@@H]2C(=O)N3CCC[C@H]3C(=O)N2[C@@H]1c1cccc(OCCO)c1
2. CC(C)NC(=O)[C@@]1(C)c2ccccc2C(=O)N(Cc2ccccc2)[C@H]1c1ccc(CO)cc1
3. O=C1O[C@@H](c2ccccc2)[C@@H](c2ccccc2)N2[C@@H](c3ccc(OCCO)cc3)[C@]3(C(=O)Nc4ccc(C#CC5(O)CCCCCC5)cc43)[C@@H](C(=O)Nc3nc4ccccc4s3)[C@H]12
4. C=C(C)[C@@H]1CC=C(C(O)C2C=CC3C(=O)N(C)C(=O)C3N2Nc2ccc([N+](=O)[O-])cc2[N+](=O)[O-])CC1 (some centres undefined)

Return:
1. 0.391
2. 1.49
3. -0.456
4. -1.71
